- study_target: Cysteinyl leukotriene receptor 1 (Cavia porcellus)
- Sequence (whole entry): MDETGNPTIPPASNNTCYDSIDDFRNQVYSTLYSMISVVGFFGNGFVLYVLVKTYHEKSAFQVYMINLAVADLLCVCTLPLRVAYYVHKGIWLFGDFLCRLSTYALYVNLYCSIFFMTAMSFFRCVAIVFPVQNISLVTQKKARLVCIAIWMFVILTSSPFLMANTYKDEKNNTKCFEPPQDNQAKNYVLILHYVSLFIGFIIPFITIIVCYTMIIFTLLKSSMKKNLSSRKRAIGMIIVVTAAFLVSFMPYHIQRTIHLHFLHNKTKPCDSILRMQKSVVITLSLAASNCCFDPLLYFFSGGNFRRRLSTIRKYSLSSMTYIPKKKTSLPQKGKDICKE
- assay_info: Dissociation constant KB = [antagonist]/(dose ratio -1).KB determined in guinea pig tracheal spirals with LTE4 as agonist
- Assay type: functional, tissue-based
- reported_conditions: Trachea
quantity: pKB

[[record]]
compound = "CCCCOC(=O)Nc1ccc2cnn(Cc3ccc(C(=O)O)cc3OC)c2c1"
quantity = "pKB"
obs_value = 6.7


[P] CCC(C(=O)Nc1ccc2cnn(Cc3ccc(C(=O)O)cc3OC)c2c1)c1ccccc1 (stereo not drawn)
[Q] COc1cc(C(=O)NS(=O)(=O)c2ccccc2)ccc1Cn1ncc2ccc(NC(=O)OC3CCCC3)cc21 [ICI-198615]
## Input Given the listed records, identify the one among P and Q with higher pKB. # answer = label of selected item
## Output Q

[P] COc1cc(C(=O)NS(=O)(=O)c2ccccc2)ccc1Cn1ccc2ccc(NC(=O)CC3CCCC3)cc21
[Q] CCCCC(CC)C(=O)Nc1ccc2ccn(Cc3ccc(-c4nn[nH]n4)cc3OC)c2c1 (stereo not drawn)
## Input When the recorded pKB values are compared, which is smaller: that of P or that of Q ? # answer = label of selected item
## Output Q
(Q: 6.6, P: 9.6)

[P] COc1cc(C(=O)NS(=O)(=O)c2ccccc2)ccc1Cn1ccc2ccc(NC(=O)OC3CCCC3)cc21
[Q] CCCCC(CC)C(=O)Nc1ccc2ccn(Cc3ccc(C(=O)O)cc3OC)c2c1 (stereo not drawn)
## Input Given the listed records, identify the one among P and Q with higher pKB. # answer = label of selected item
## Output P
(P: 9.5, Q: 6.6)

----------
# Antagonism values compiled below
- Species: Cavia porcellus
- assay_info: In vitro antagonism of 8 nM of peptidoleukotriene (LTE4) induced contraction of guinea pig tracheal spirals at 0.01 X E-7M concentration
- Format: functional, Trachea
// note: answer is a bare numeric in %

[[record]]
compound = "COc1cc(C(=O)NS(=O)(=O)c2ccccc2)ccc1Cn1ncc2ccc(NC(=O)CC3CCCC3)cc21"
quantity = "Antagonism"
result_units = "%"
obs_value = 100

[[record]]
compound = "COc1cc(C(=O)NS(=O)(=O)c2ccccc2)ccc1Cn1ccc2ccc(NC(=O)CC3CCCC3)cc21"
quantity = "Antagonism"
result_units = "%"
obs_value = 50

[[record]]
compound = "COC(=O)C(C(=O)c1ccc(Cn2ccc3ccc(NC(=O)CC4CCCC4)cc32)c(OC)c1)S(=O)(=O)c1ccccc1 (stereo not given)"
quantity = "Antagonism"
result_units = "%"
obs_value = 63


## Input Which Antagonism is reported for this compound? COc1cc(C(=O)NS(=O)(=O)c2ccccc2)ccc1Cn1ncc2ccc(NC(=O)OC3CCCC3)cc21
## Output 69

## Input // next record COC(=O)C(C(=O)c1ccc(Cn2ncc3ccc(NC(=O)OC4CCCC4)cc32)c(OC)c1)S(=O)(=O)c1ccccc1 (stereo not given)
## Output 53

----------
- Organism: Cavia porcellus
- assay_info: In vitro antagonism of 8 nM of peptidoleukotriene (LTE4) induced contraction of guinea pig tracheal spirals at 33 X E-7M concentration
- Assay type: functional, Trachea
quantity: Antagonism (%)
// note: answer is a bare numeric in %

Example results:
[[record]]
compound = "CCCCC(CC)C(=O)Nc1ccc2ccn(Cc3ccc(C(=O)O)cc3C)c2c1 (stereo not drawn)"
obs_value = 21

[[record]]
compound = "CCCCC(CC)C(=O)Nc1ccc2ccn(Cc3ccc(C(=O)N[S+]([O-])c4ccccc4)cc3OC)c2c1 (stereo not drawn)"
obs_value = 34

[[record]]
compound = "CCCCC(CC)C(=O)Nc1ccc2ccn(Cc3ccc(C(=O)O)cc3OC)c2c1 (stereo not drawn)"
obs_value = 100


## Input Which Antagonism is reported for this compound? CCCCC(CC)C(=O)Nc1ccc2ccn(Cc3ccc(C(=O)O)cc3OCCCC#N)c2c1 (stereo not drawn)
## Output 33

## Input // next record CCCCOc1cc(C(=O)O)ccc1Cn1ccc2ccc(NC(=O)C(CC)CCCC)cc21 (stereo not drawn)
## Output 44

----------
- Species: Cavia porcellus
- assay_info: In vitro antagonism of 8 nM of peptidoleukotriene (LTE4) induced contraction of guinea pig tracheal spirals at 0.033 X E-7M concentration
- Type: functional, Trachea
# Antagonism values compiled below
// note: answer is a bare numeric in %

[[record]]
molecule = "COC(=O)C(C(=O)c1ccc(Cn2ccc3ccc(NC(=O)CC4CCCC4)cc32)c(OC)c1)S(=O)(=O)c1ccccc1 (configuration not stated)"
obs_value = 94

[[record]]
molecule = "CCCCOC(=O)Nc1ccc2cnn(Cc3ccc(C(=O)NS(=O)(=O)c4ccccc4)cc3OC)c2c1"
obs_value = 77

[[record]]
molecule = "COc1cc(C(=O)NS(=O)(=O)c2ccccc2)ccc1Cn1ccc2ccc(NC(=O)CC3CCCC3)cc21"
obs_value = 92


## Input Which Antagonism is reported for this molecule? COc1cc(C(=O)NS(=O)(=O)c2ccccc2)ccc1Cn1ncc2ccc(NC(=O)OC3CCCC3)cc21
## Output 100

## Input // next record COC(=O)C(C(=O)c1ccc(Cn2ncc3ccc(NC(=O)OC4CCCC4)cc32)c(OC)c1)S(=O)(=O)c1ccccc1 (configuration not stated)
## Output 78

## Input // next record CCC(C(=O)Nc1ccc2cnn(Cc3ccc(C(=O)NS(=O)(=O)c4ccccc4)cc3OC)c2c1)c1ccccc1 (configuration not stated)
## Output 43

## Input // next record COc1cc(C(=O)NS(=O)(=O)c2ccccc2)ccc1Cn1ccc2ccc(NC(=O)OC3CCCC3)cc21
## Output 61

----------
- Organism: Cavia porcellus
- assay_info: In vitro antagonism of 8 nM of peptidoleukotriene (LTE4) induced contraction of guinea pig tracheal spirals at 3.3 X E-7M concentration
- Format: functional, Trachea
# Antagonism values compiled below
// note: answer is a bare numeric in %

Example results:
[[record]]
compound = "CCCCC(CC)C(=O)Nc1ccc2ccn(Cc3ccc(-c4nn[nH]n4)cc3OC)c2c1 (stereo not given)"
obs_value = 31

[[record]]
compound = "CCCCOC(=O)Nc1ccc2cnn(Cc3ccc(C(=O)O)cc3OC)c2c1"
obs_value = 56


## Input Which Antagonism is reported for this compound? COc1cc(-c2nn[nH]n2)ccc1Cn1ccc2ccc(NC(=O)CC3CCCC3)cc21
## Output 79

## Input // next record CCC(C(=O)Nc1ccc2cnn(Cc3ccc(C(=O)O)cc3OC)c2c1)c1ccccc1 (stereo not given)
## Output 30

## Input // next record CCCCOC(=O)Nc1ccc2cnn(Cc3ccc(-c4nn[nH]n4)cc3OC)c2c1
## Output 55

----------
- Species: Cavia porcellus
- assay_info: In vitro antagonism of 8 nM of peptidoleukotriene (LTE4) induced contraction of guinea pig tracheal spirals at 33 X E-7M concentration
- Assay type: functional, Trachea
quantity: Antagonism (%)
// note: answer is a bare numeric in %

Example results:
[[record]]
molecule = "CCCCCC(=O)Nc1ccc2ccn(Cc3ccc(-c4nn[nH]n4)cc3OC)c2c1"
quantity = "Antagonism"
result_units = "%"
obs_value = 86

[[record]]
molecule = "COc1cc(C(=O)O)ccc1Cn1ccc2ccc(NC(=O)OC3CCCC3)cc21"
quantity = "Antagonism"
result_units = "%"
obs_value = 100


Turning now to a further molecule:
## Input Which Antagonism is reported for this molecule? CCCCC(CC)C(=O)Nc1ccc2ccn(Cc3ccc(C(=O)O)c(Br)c3)c2c1 (stereo not drawn)
## Output 33
